- Test system: L5178Y
- procedure-summary: Cytotoxicity against mouse L5178Y cells assessed as reduction in cell viability incubated for 72 hrs by MTT assay
- Assay type: functional, cell-based
- condition-info: l5178y
quantity-measured: IC50

compound | assayed-target | value
CC(C)(O)[C@@H]1CC[C@]2(C)[C@H](CC[C@@]3(C)[C@H]2CC[C@H]2Cc4c([nH]c5ccccc45)[C@@]23C)O1 | L5178Y | Not Active
CC1(C)CC2=C(Cc3cc(C(=O)C[C@@H]4CC[C@@]5(O)C6=CC(=O)[C@@H](C(C)(C)O)O[C@H]6CC[C@]5(C)[C@@]4(C)C(=O)O)c(N)cc32)C(C)(C)O1 | L5178Y | Not Active
CC(C)(O)[C@H]1O[C@H]2CC[C@@]3(C)[C@@H](CC[C@H]4Cc5c([nH]c6ccccc56)[C@@]43C)C2=C[C@H]1O | L5178Y | Not Active
CO[C@]12CC[C@@]3(C)[C@@](O)(CC[C@H]4Cc5c([nH]c6ccccc56)[C@@]43C)C1=CC(=O)[C@@H](C(C)(C)O)O2 | L5178Y | Not Active

What does the record list as IC50 for CO[C@]12CC[C@@]3(C)[C@@](O)(CC[C@H]4Cc5c([nH]c6cc7c(cc56)CC5=C7CC(C)(C)OC5(C)C)[C@@]43C)C1=CC(=O)[C@@H](C(C)(C)O)O2 ?
Not Active

What does the record list as IC50 for CC(C)(O)[C@H]1O[C@H]2CC[C@@]3(C)[C@@H](CC[C@H]4Cc5c([nH]c6ccccc56)[C@@]43C)C2=CC1=O [DEHYDROXYPAXILLINE] ?
Not Active

What does the record list as IC50 for CC(C)=CCc1ccc2[nH]c3c(c2c1)C[C@@H]1CC[C@@]2(O)C4=CC(=O)[C@@H]5O[C@@]4(CC[C@]2(C)[C@@]31C)OC5(C)C ?
Not Active

What does the record list as IC50 for CO[C@]12CC[C@@]3(C)[C@@](O)(CC[C@H]4CC(=O)c5cc6c(cc5NC(=O)[C@@]43C)C3=C(C6)C(C)(C)OC(C)(C)C3)C1=CC(=O)[C@@H](C(C)(C)O)O2 ?
Not Active

---

- procedure-summary: Selectivity index, ratio of IC50 for HEK293 cells to IC50 for human A2780 cells
- Type: toxicity
- condition-info: HEK293 cells versus A2780 cells, read-out: Ratio IC50
Let's look at some molecules and their measured selectivity ratio.
Just the number.

Here is how some molecules turned out for selectivity ratio.
smiles-record | selectivity ratio
CC1(C)O[C@@]23CC[C@@]4(C)C(=CC[C@H]5Cc6c([nH]c7ccccc67)[C@@]54C)C2=CC(=O)[C@@H]1O3 | 1.8
CC1(C)CC2=C(Cc3cc4c(cc32)NC(=O)[C@@]2(C)[C@@H](CC[C@@]3(O)C5=CC(=O)[C@@H](C(C)(C)O)O[C@H]5CC[C@@]32C)CC4=O)C(C)(C)O1 | 2.4

Here is the next item to consider.
What does the record list as selectivity ratio for CC1(C)CC2=C(Cc3cc4c5c([nH]c4cc32)[C@@]2(C)[C@@H](CC[C@@]3(O)C4=CC(=O)[C@@H](C(C)(C)O)OC4=CC[C@@]32C)C5)C(C)(C)O1 ?
4.8

Values were extracted from ChEMBL document CHEMBL4392865.
